test system: Candida albicans; settings: 20 µM
Description: Antifungal activity against Candida albicans ATCC 90028 (CO-ADD:FG_001); MIC in YNB media using NBS plates, by OD630
Potency and affinity values are given separately.
Measured attribute: Inhibition (%)

{"columns": ["Molecule", "Measured attribute", "Unit symbol", "Reported measurement"],
 "data": [
  ["O=c1[nH]c(=S)c2nc(S)n(-c3ccccc3)c2[nH]1", "Inhibition", "%", 0.52],
  ["Sc1ncnc2c1ncn2C1CCCC1", "Inhibition", "%", 3.52],
  ["Cc1c(C#N)c2n(c1C)CCCC(=O)N2", "Inhibition", "%", 10.6],
  ["COc1ccc(C(C)=O)cc1CO/N=C1\\CSCc2ccccc21", "Inhibition", "%", 18.6],
  ["Cc1ccncc1C(N)=O", "Inhibition", "%", 1.98],
  ["Cc1cc(-n2cnc3c(O)ncnc32)ccc1N", "Inhibition", "%", 1.13],
  ["CCOC(=O)c1c(C)nc(C)c(C(=O)OCC)c1-c1cccnc1", "Inhibition", "%", 0.35],
  ["CN(C)c1ncnc2c1ncn2-c1ccccc1", "Inhibition", "%", 1.36],
  ["CSc1c(N(C)C)c(=O)c1=S", "Inhibition", "%", 1.7],
  ["CCOC(=O)c1cnn2c(SC)ncnc12", "Inhibition", "%", 5.51],
  ["CCN(CC)CCNC(=O)c1ccc(NCN2C(=O)NC(c3ccccc3)(c3ccccc3)C2=O)cc1", "Inhibition", "%", 1.74],
  ["c1ccc(CSc2nnc3c4ccccc4c4ccccc4c3n2)cc1", "Inhibition", "%", 5.6],
  ["CCC(C)(C)c1ccc(Oc2cccc(C(=O)O)c2)cc1", "Inhibition", "%", 8.87],
  ["COc1cc(C(=O)OC(C)CN2CCOCC2)cc(OC)c1OC (centres undefined)", "Inhibition", "%", -2.91]
]}

---

The entries below come with measured Inhibition values attached.
test system: Candida albicans; settings: 20 µM
Potency and affinity values are given separately.
Measured attribute: Inhibition (%)

{"columns": ["Compound", "System", "Reported measurement"],
 "data": [
  ["C=CCSc1n[nH]c(-c2cccs2)n1", "Candida albicans", 2.69],
  ["NC(=O)C1=C(N)c2ccccc2C1c1ccccc1 (stereo not drawn)", "Candida albicans", 4.94],
  ["CCOC(=O)Nc1csnn1", "Candida albicans", 5.16]
]}

---

test system: Cryptococcus neoformans; conditions: Concentration 20 uM; ASSAY_TEST Inhibition of Fungal Growth; detection method Resazurin; Absorption (OD600-OD570); plate type 384well; NBS; CORNING #3640
Description: Antifungal activity against Cryptococcus neoformans H99 ATCC 208821 (CO-ADD:FG_002); MIC in YNB media using NBS plates, by Resazurin OD(600-570)
Entries with a potency or affinity are not part of this list.

{"columns": ["Molecule", "Inhibition (%)"],
 "data": [
  ["c1ccc2c(c1)Oc1cccc3cccc-2c13", -13.12],
  ["Cc1cc(O)c2cc(C(=O)c3ccccc3)ccc2n1", -7.43],
  ["COCC(O)Cn1ccnc1[N+](=O)[O-] (stereo not given)", -12.64],
  ["C=CCOc1ccnc(-c2ccccc2)n1", -7.2],
  ["CC1=NC(C)(C)CC2CCC(O)C12 (stereo not given)", -2.24]
]}

---

system: Candida albicans; details: 20 µM
Results with a measured potency or affinity are listed apart.

{"columns": ["Compound", "Unit symbol", "Inhibition"],
 "data": [
  ["CCOC(=O)c1ccc2c(c1)NCc1cccc(OC)c1O2", "%", 9.96],
  ["CCC(CO)Nc1nc2ccc(Cl)cc2c2ccccc12 (stereo not given)", "%", 4.64],
  ["CCCCCc1cccnc1", "%", 2.3],
  ["CCOC(=O)C1(C#N)C(=O)CS/C1=N/c1ccccc1Cl (stereo not given)", "%", 1.9],
  ["COC(=O)C1CC(O)C(O)C(O)C1 (stereo not given)", "%", 1.86],
  ["Cc1cc2cc3c(=O)[nH]c(=O)cc-3n(CC(O)C(O)C(O)CO)c2cc1C (stereo not given)", "%", -1.58],
  ["CC(C)c1ncc(CO)n1Cc1c(Cl)cccc1Cl", "%", 0.71],
  ["Cc1cc(/C=C2\\SC(=S)NC2=O)cc(C)c1O", "%", 8.55],
  ["Cc1cc2nc3ccc(N(C)C)cc3[s+]c2cc1N.[Cl-] [TOLONIUM CHLORIDE]", "%", 1.87],
  ["COc1c(C=O)c2c(c(OC)c1OC)-c1ccc(OC)c(=O)cc1[C@@H](NC(C)=O)CC2", "%", 0.57],
  ["CS/C(=C\\c1ccc(C(=O)c2ccc(C)cc2)n1C)[S+](C)[O-] (stereo not given)", "%", 3.75],
  ["NNC(=O)c1nnsc1-c1csnn1", "%", 13.6],
  ["O=[N+]([O-])c1cccnc1Oc1cc(Cl)c(Cl)cc1Cl", "%", 1.25],
  ["COc1ccc(-c2cc(-c3ccccc3)c(-c3ccccc3)nn2)cc1", "%", 2.55],
  ["COC1OC(O)C(NC(=O)C(F)(F)F)CC1O (stereo not given)", "%", 3.69],
  ["Nc1c(Cl)ncnc1NCCO", "%", 2.14],
  ["COC(=O)C1=C(C)NC(C)=C(C(=O)OC)C(N2C(=O)CCC2=O)C1 (stereo not given)", "%", 2.3],
  ["COC(=O)c1c[n+]([O-])ccc1OC", "%", -2.55],
  ["C(=N\\n1cnnc1)/c1ccc2c(c1)CCC2", "%", 12.8],
  ["O=C(c1ccccc1)c1ccc[nH]1", "%", 2.09],
  ["O=C1CCC(c2ccccc2)(c2ccccc2)CC1", "%", -1.35],
  ["OCc1nnn(-c2ccccc2)c1CO", "%", -4.02],
  ["COc1ccc(Br)c2c1C(=O)CC2", "%", 20.7],
  ["Clc1ccccc1-c1nc2ccccc2[nH]1", "%", 4.17],
  ["O=C(Nc1ccc(NC(=O)c2ccncc2)cc1)c1ccncc1", "%", 1.6],
  ["Nc1nc(Cl)cc(Nc2ccccc2Cl)n1", "%", 7.79],
  ["Sc1nc2ccccc2n2cccc12", "%", 17.9],
  ["CCCOc1nc2c(c(=O)n(C)c(=O)n2C)n1C", "%", 1.36],
  ["O=C1C(Br)=Cc2cccc3cccc1c23", "%", 32.2],
  ["Nc1o[nH]c(=O)c1C1CCCCC1", "%", 1.7],
  ["CC(C)Oc1ccc(C(=O)O)cc1", "%", 24.9],
  ["Cn1cnc2ncnn2c1=S", "%", 2.7],
  ["CSc1ccc2c(c1)C(N1CCN(C)CC1)Cc1ccccc1S2.O=C(O)/C=C\\C(=O)O (stereo not given)", "%", 2.59],
  ["O=C1c2ccccc2C(=O)N1c1nc[nH]n1", "%", -0.21],
  ["Cc1cc(C)c(C#N)c(Sc2nc(C)c([N+](=O)[O-])c(C)c2C#N)n1", "%", 8.27]
]}

---

The entries below come with measured Inhibition values attached.
system: Candida albicans; details: 20 µM
Results with a measured potency or affinity are listed apart.

{"columns": ["Structure as smiles", "System", "Inhibition"],
 "data": [
  ["COc1ccc(C(=O)Oc2cccnc2O)cc1", "Candida albicans", "4.27%"],
  ["Sc1nc2c[nH]c(S)nc-2n1", "Candida albicans", "5.35%"],
  ["Oc1cc(CNC2CCCCC2)c(O)cc1CNC1CCCCC1", "Candida albicans", "5.97%"],
  ["COc1c(NC=O)c2c(c([N+](=O)[O-])c1OC)C(=O)OC2", "Candida albicans", "5.38%"],
  ["CCOP(=O)(OCC)/C(C#N)=C/c1c[nH]c2ccccc12", "Candida albicans", "-0.38%"],
  ["Cc1cccnc1NC(=O)c1csnn1", "Candida albicans", "-1.09%"],
  ["COc1ccc(/C=C2/CCOC2=O)cc1", "Candida albicans", "3.59%"]
]}

---

The entries below come with measured Inhibition values attached.
system: Cryptococcus neoformans; conditions: Concentration 20 uM; ASSAY_TEST Inhibition of Fungal Growth; detection method Resazurin; Absorption (OD600-OD570); plate type 384well; NBS; CORNING #3640
Potency and affinity values are given separately.

{"columns": ["Compound", "Inhibition, %"],
 "data": [
  ["NC(=S)NC(=O)c1ccccc1", -5.13],
  ["Nc1nc2c[nH]c(N)nc-2n1", -2.1],
  ["CCOC(CNCc1cc(C)c2[nH]c3ccccc3c2c1C)OCC", -11.65],
  ["Cc1ccc(C)c(N2CCN(c3ccncc3N)CC2)c1", -6.74],
  ["CCOC(=O)Cc1cnc(S)nc1O", -1.74],
  ["COc1cc(/C=N/N=c2\\[nH]c3c(=O)n(C)c(=O)n(C)c3[nH]2)ccc1O", 33.61],
  ["OC(c1ccccc1)(c1ccccc1)c1nccn1-c1ccccc1", -7.88],
  ["O=C(c1ccc(O)cc1)c1ccc(C(=O)c2ccc(O)cc2)cc1", -7.33],
  ["O=C(N(c1ccccc1)c1ccccc1)N(c1ccccc1)c1ccccc1", -13.12],
  ["COc1ccc(Nc2cc(Cl)ccc2C(=O)O)cn1", -8],
  ["C=CCSC(CC)(CC)C(N)=O", 7.21],
  ["Cc1ccc([N+](=O)[O-])cc1NC(=O)Nc1cccc(F)c1", -9.48],
  ["NC(=O)c1ccccc1NC(=O)c1ccccc1Cl", -15.77],
  ["Br.CN(C)c1n/c(=N/Cc2ccco2)ss1", -13.39],
  ["Oc1nc2ccccc2n1C1=CCNCC1", -5.4],
  ["C1CCC(NC2=NCCO2)CC1", -10.7],
  ["Clc1c(Cl)c(Cl)c2[nH]nnc2c1Cl", -10.27],
  ["Cc1ccc(C)c(C(=O)CCC(=O)O)c1", -5.46],
  ["CC1(C)SC(C)(C)N(C=O)C1C(=O)O (centres undefined)", -3.91],
  ["c1ccc(-c2ccc3c(c2)NC(C2Nc4cc(-c5ccccc5)ccc4O2)O3)cc1 (centres undefined)", -14.91],
  ["OC1(Cc2ccccc2)CCNCC1", -0.07],
  ["O=C(O)/C(=C/c1ccccc1)c1ccccc1", -16.02],
  ["CN(C)c1ccc(/N=N\\c2cccc3ccoc23)cc1", -4.24],
  ["Cc1cc(NC(=O)OC(C)C)ccc1-c1ccc(NC(=O)OC(C)C)cc1C", 33.06],
  ["OCCCCc1nccc2c1[nH]c1ccccc12", -8.33],
  ["CCS(=O)(=O)C1C(=O)N(C)C(S(=O)(=O)CC)C(=O)N1C (centres undefined)", -11.73],
  ["CCNC(=O)Oc1cccnc1O", -16.02],
  ["Sc1ncc2cnccn12", -12.71],
  ["Cc1cc2c(cc1C)NC1=C(O)C(c3cccc(O)c3)OC1=N2 (centres undefined)", -0.13],
  ["Cc1ccc2c(c1)sc1nncn12", -11.46],
  ["Cc1ccc(Nc2nnc(-c3ccc4c(c3)OCO4)o2)c(C)c1", -3.73],
  ["Cn1cnc([N+](=O)[O-])c1N=C(N)N", 1.78],
  ["CCCN=C(S)Nc1ccccc1", 1.71],
  ["Cc1c(Cl)ccc2c(C(=O)O)cc(-c3ccccc3)nc12", 13.39]
]}
